# TESTED_SYSTEM: T1, recombinant biotinylated human PAR2 extracellular domain (residues 1-75), N-terminal AviTag, C-terminal Flag … (human, UniProt P55085 26-75, biotin on the AviTag (enzymatic biotinylation))
# T1 construct: also called Bio-human-PAR2 ECD; human PAR2 ECD; not shown: N-terminal AviTag (Avidity LLC); C-terminal Flag and poly Histidine tags
# T1 sequence (P55085 26-75): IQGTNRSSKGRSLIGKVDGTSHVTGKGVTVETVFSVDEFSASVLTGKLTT
# PROTOCOL_DETAILS: HTRF competition with Par0067 IgG, pH 6.0, scFv
Parameter: IC50. Scope: all listed entries.
Entry rule: numbers only, all in nM.

PaB670081 scFv (scFv, V domains shown, purified scFv; also called ZZ1OZA-C01) VH: EVQLLESGGGLVQPGGSLRLSCAASGFTFSSYAMNWVRQAPGKGLEWVSTISHSGHHISHHDSHHGRFTISRDNSKNTLYLQMNSLRAEDTAVYYCARINNDPMDVWGQGTLVTVSS VL: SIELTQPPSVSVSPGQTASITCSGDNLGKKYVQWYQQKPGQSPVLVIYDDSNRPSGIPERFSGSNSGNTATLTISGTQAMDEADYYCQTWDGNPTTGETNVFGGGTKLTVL    260

// moving on: another record for IC50
Given the entry PaB670010 scFv (scFv, V domains shown, purified scFv; also called ZZ1DRB-B08) VH: EVQLLESGGGLVQPGGSLRLSCAASGFTFSSYAMNWVRQAPGKGLEWVSTISYSGSLIHYADSVKGRFTISRDNSKNTLYLQMNSLRAEDTAVYYCARINNDPMDVWGQGTLVTVSS VL: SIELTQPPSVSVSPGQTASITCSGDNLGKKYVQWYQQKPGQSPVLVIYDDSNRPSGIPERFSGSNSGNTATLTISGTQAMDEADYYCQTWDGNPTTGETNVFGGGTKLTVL , report its measured IC50.
41.8
